- condition_details: 308.15 K; 101.33 kPa; Liquid; Alternating current cell with electrodes
measured_parameter: electrical conductivity (S/m)
# value in S/m; strip the unit string

Request: Any idea what electrical conductivity was measured for CCCCCC[n+]1ccn(C)c1.O=S(=O)([N-]S(=O)(=O)C(F)(F)F)C(F)(F)F ?
Response: 0.328

Request: Param item: CCCCCCCCn1cc[n+](C)c1.O=S(=O)([N-]S(=O)(=O)C(F)(F)F)C(F)(F)F
Response: 0.204

Request: Proceed to CCCCn1cc[n+](C)c1.O=S(=O)([N-]S(=O)(=O)C(F)(F)C(F)(F)F)C(F)(F)C(F)(F)F [1-butyl-3-methylimidazolium bis(perfluoroethylsulfonyl)imide]
Response: 0.227

Request: Follow-up entry: CC(=O)[O-].CCn1cc[n+](C)c1 [1-ethyl-3-methylimidazolium acetate]
Response: 0.471

Sourced from the NIST ThermoML archive (doi:10.1021/acs.jced.5b00285)
